These measurements were taken from patent US20240044920A1.

systemTested: T1, human ceruloplasmin (human, UniProt P00450 20-1065)
T1 construct: also called CP; purified CP
T1 sequence: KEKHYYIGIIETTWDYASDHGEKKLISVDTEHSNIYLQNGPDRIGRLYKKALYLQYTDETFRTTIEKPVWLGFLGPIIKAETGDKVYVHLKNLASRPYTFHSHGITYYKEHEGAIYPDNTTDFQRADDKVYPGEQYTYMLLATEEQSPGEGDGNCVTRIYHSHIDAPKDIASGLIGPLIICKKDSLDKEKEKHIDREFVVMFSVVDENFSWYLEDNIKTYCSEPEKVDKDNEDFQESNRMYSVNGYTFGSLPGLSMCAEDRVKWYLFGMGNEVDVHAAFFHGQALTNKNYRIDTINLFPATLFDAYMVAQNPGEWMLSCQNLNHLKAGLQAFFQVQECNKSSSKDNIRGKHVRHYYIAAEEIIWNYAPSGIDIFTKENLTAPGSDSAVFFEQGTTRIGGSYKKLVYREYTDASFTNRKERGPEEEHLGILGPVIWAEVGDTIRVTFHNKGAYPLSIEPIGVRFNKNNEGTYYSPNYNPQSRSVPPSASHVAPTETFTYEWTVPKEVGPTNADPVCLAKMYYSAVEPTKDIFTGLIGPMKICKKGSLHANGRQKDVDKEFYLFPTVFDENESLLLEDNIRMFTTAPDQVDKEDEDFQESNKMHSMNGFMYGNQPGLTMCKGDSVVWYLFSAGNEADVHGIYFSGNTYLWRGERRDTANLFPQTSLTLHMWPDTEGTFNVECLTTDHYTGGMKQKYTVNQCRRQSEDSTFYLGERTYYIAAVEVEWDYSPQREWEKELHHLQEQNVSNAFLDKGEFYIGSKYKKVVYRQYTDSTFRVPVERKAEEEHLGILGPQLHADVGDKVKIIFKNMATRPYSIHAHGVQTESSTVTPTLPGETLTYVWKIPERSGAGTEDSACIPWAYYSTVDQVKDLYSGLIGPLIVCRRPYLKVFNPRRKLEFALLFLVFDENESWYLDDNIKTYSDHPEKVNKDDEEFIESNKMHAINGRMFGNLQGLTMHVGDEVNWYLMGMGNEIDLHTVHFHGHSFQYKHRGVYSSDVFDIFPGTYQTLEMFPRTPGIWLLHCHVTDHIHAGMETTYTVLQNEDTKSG
experimentalDetails: competition ELISA on coated CP, biotinylated probe; competitor: mAb G
Each record here notes measured probe binding, % of diluent control.

>  <binder>
anti-CP mAb C (antibody, V domains shown, Recombinant full-length rabbit IgG from HEK-293; also called mAb2) VH: QSVEESGGRLVTPGTPLTLTCTASGFSLSRYYMSWVRQAPGKGLEWIGMIYPSSGSTWYASWVKGRFTISATATSVDLKITSPTTEDTATYFCVRDRYPGYNGDSFNLWGQGTLVTVSS VL: AQVLTQTASPVSAAVGSTVTINCQASQSVYNNNYLAWFQQKPGQPPKRLIYQASKLAIGVPSRFSGSGSGTQFTLTISDVQCDDAATYYCLGSYGCNSVDCNVFGGGTEVVVKG

>  <probe binding, % of diluent control (%)>
97

$$$$
>  <binder>
anti-CP mAb A (antibody, V domains shown, Recombinant full-length rabbit IgG from HEK-293; tested as conditioned medium, Protein A-purified and biotinylated) VH: QSLEESGGDLVKPGASLTLTCKASGFDLSRFYYMCWVRQAPGKGLEWIACIYAGRTGNTYYASWAKGRFTISKTSSTTVTLQMTSLTAADTATYFCARASGDFLAYTYAMDLWGPGTLVTVSS VL: AAVLTQTPASVSAAVGGTVTISCQASQSVDNNNYLAWYQQKPGQPPKLLIYEASKLASGVPSRFSGSGSGTQFTLTISDVQCDDATTYYCAGGYSSSADANAFGGGTEVVVKG

>  <probe binding, % of diluent control (%)>
35

$$$$
>  <binder>
anti-CP mAb H (antibody, V domains shown, Recombinant full-length rabbit IgG from HEK-293; tested as conditioned medium, Protein A-purified and biotinylated) VH: QSVEESGGRLVTPGTPLTLTCTVSGFSLSTYAMGWVRQAPGKGLEYIGIIYGGSGTFYASWAKGRFTISKTSTTVDLKITSPTTEDTATYFCARDGDDSYFDYFNLWGQGTLVTVSS VL: AAVLTQTPASVSAAVGGTVSISCQSNENIGSNLAWYQQKPGQPPKLLIYGASTLTSGVPSRFKGSGSGTAFTLTISGVQCDDAATYYCLGGYLSTSDTTFGGGTAVVVKG

>  <probe binding, % of diluent control (%)>
95

$$$$
>  <binder>
anti-CP mAb D (antibody, V domains shown, Recombinant full-length rabbit IgG from HEK-293; tested as conditioned medium, Protein A-purified and biotinylated) VH: QEQLVESGGGLVQPEGSLTLTCKASGFDFSSYWMCWVRQAPGKRPEWIACIYGGDGTSYFAGWAKGRFTISKTSSTTVTLQMTSLTAADTATYFCARADYYVYVDGGYGHAYDLWGPGTLVTVSS VL: DIVMTQTPASVEAAVGGSVTIKCQASDDIYSYLAWYQQKPGQPPKLLIFDASSLPSGVPSRFKGSGSGTQFTLTISGVQCADAATYYCQNYYGSSSSVHAFGGGTEVVVKG

>  <probe binding, % of diluent control (%)>
100

$$$$
